FYI, the data here is from patent US20110086759A1.

Tested on: Setaria faberi (SETFA)
Assay: Pre-emergence biological efficacy, glasshouse pot test
Format: in vivo
Details: 312 h, pre-emergence, rate 1,000 g/ha, evaluated after 13 days (100=total damage to plant; 0=no damage), read-out: Percentage damage caused to weed species, SETFA

Compound	pest or weed control at 1000 g/ha (%)
COC(=O)c1nc(C2CC2)nc(N(CC=C(C)C)Cc2ccccc2C(F)(F)F)c1Cl [Compound 152-75]	40
COC(=O)c1nc(C2CC2)nc(N(CCO)Cc2cccnc2)c1Cl [Compound 157-156]	0
CCN(Cc1ccco1)c1nc(C2CC2)nc(C(=O)OC)c1Cl [Compound 6-125]	30
COC(=O)c1nc(C2CC2)nc(N(C)Cc2ccc(C)o2)c1Cl [Compound 5-135]	10
CCN(c1nc(C2CC2)nc(C(=O)OC)c1Cl)C1CCCCC1 [Compound 6-35]	0
COC(=O)c1nc(C2CC2)nc(N(CCC#N)Cc2ccccc2)c1Cl [Compound 161-60]	0
COC(=O)c1nc(-c2ccc(Cl)cc2C)nc(NCc2ccco2)c1Cl [Compound 213-48]	10
COC(=O)c1nc(-c2ccc(OC)cc2OC)nc(NCc2ccco2)c1Cl [Compound 252-48]	20
COC(=O)c1nc(C2CC2)nc(N(C/C=C/c2ccccc2OC)C(C)C)c1Cl [Compound 146-255]	20
COC(=O)c1nc(-c2ccc(Cl)c(OC)c2F)nc(NCC2CC2)c1Cl [Compound 112-43]	30
COC(=O)c1nc(-c2ccc(OC(F)(F)F)cc2)nc(NCc2ccco2)c1Cl [Compound 248-48]	0
COC(=O)c1nc(-c2ccc(Cl)c(Cl)c2F)nc(NCc2ccco2)c1Cl [Compound 226-48]	40
COC(=O)c1nc(-c2ccc(C(F)(F)F)c(Cl)c2)nc(NCc2ccco2)c1Cl [Compound 235-48]	0
COc1c(Cl)ccc(-c2nc(NCc3ccco3)c(Cl)c(C(=O)O)n2)c1F [Compound 109-125]	90
CCOC(=O)c1nc(C2CC2)nc(NCc2ccccc2)c1Cl [Compound 7-60]	50
O=C(NCc1cccs1)c1nc(C2CC2)nc(NCc2cccs2)c1Cl [Compound 265-4]	0
COC(=O)c1nc(C2CC2)nc(N(C)C(C)C(O)c2ccccc2)c1Cl (stereo not shown) [Compound 5-270]	0
COC(=O)c1nc(C2CC2)nc(N(Cc2ccccc2)C[Si](C)(C)C)c1Cl [Compound 150-60]	20
COC(=O)c1nc(-c2ccc(F)cc2)nc(NCc2ccco2)c1Cl [Compound 242-48]	0
COC(=O)c1nc(-c2ccc(F)c(F)c2F)nc(NCc2ccco2)c1Cl [Compound 247-48]	20
COC(=O)c1nc(-c2ccc(Cl)c(N(C)C)c2F)nc(NCc2ccco2)c1Cl [Compound 261-48]	90
COC(=O)c1nc(-c2cc(F)c(F)cc2F)nc(NCc2ccco2)c1Cl [Compound 241-48]	0
COC(=O)c1nc(-c2ccc(Cl)cc2F)nc(NCc2ccco2)c1Cl [Compound 218-48]	70
C=Cc1c(NCc2ccco2)nc(-c2ccc(Cl)cc2)nc1C(=O)OC [Compound 67-125]	10
COC(=O)c1nc(-c2ccc(C)c(C)c2)nc(NCc2ccco2)c1Cl [Compound 255-48]	0
COC(=O)c1nc(C2CC2)nc(N(C)Cc2c(Cl)cccc2Cl)c1Cl [Compound 5-104]	0
COC(=O)c1nc(-c2ccc(Cl)c(C(F)(F)F)c2F)nc(NCc2ccco2)c1Cl [Compound 230-48]	50
COC(=O)c1nc(C2CC2)nc(N(CCO)Cc2ccc(Cl)nc2)c1Cl [Compound 157-157]	30
CCN(Cc1ccnc(C)n1)c1nc(C2CC2)nc(C(=O)OC)c1Cl [Compound 6-161]	0
COC(=O)c1nc(-c2ccc(Cl)c(F)c2F)nc(NCc2ccco2)c1Cl [Compound 225-48]	80
CCN(Cc1ccccc1F)c1nc(C2CC2)nc(C(=O)OC)c1Cl [Compound 6-64]	30
COC(=O)c1nc(C2CC2)nc(N(Cc2ccc(C)o2)C(C)C)c1Cl [Compound 146-135]	40
COC(=O)c1nc(-c2ccc(C)cc2)nc(NCc2ccco2)c1Cl [Compound 237-48]	0
C=CCN(Cc1cccc(OC)c1OC)c1nc(C2CC2)nc(C(=O)OC)c1Cl [Compound 151-109]	10
